Target: T1, recombinant human IL-27 (human, UniProt Q14213 21-229; Q8NEV9 29-243)
T1 construct: Bought from R&D Systems (Cat. 2526-IL); also called hIL-27; rhIL-27
T1 sequence 1: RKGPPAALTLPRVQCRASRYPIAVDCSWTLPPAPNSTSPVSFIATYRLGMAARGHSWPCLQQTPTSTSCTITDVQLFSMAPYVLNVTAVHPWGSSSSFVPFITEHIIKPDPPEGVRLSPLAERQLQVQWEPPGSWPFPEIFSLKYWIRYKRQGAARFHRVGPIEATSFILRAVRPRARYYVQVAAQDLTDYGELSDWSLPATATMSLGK
T1 sequence 2: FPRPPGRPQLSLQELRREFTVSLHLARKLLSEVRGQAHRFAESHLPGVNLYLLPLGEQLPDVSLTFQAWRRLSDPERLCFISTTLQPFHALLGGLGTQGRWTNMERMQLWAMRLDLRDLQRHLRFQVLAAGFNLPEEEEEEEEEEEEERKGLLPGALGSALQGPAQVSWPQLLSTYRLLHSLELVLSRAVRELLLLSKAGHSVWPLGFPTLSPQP
Assay: SPR, hIL-27 on CM5 chip, bivalent analyte model
READOUT: ka2

Exercise: Quickly give me recorded ka2 for Ab7.5 (antibody, human IgG1, kappa, V domains shown, human IgG1/kappa) VH: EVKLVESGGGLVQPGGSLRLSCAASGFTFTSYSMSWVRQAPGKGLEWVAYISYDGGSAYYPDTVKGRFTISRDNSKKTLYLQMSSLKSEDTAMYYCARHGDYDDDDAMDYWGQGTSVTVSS VL: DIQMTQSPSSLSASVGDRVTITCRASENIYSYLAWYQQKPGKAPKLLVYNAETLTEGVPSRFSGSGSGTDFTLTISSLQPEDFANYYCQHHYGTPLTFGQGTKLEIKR
Solution: 0.028 1/RUs
